The measured values listed here are drawn from ChEMBL document CHEMBL1122709.

test system: HeLa; assay: Inhibition of macromolecular synthesis in HeLa cells assayed by the incorporation of radioactive uridine into RNA; format: functional, cell-based; settings: Homo sapiens
Observable: pIC50
On this scale, pIC50 is minus log10 of a concentration expressed in M (mol/L).

As a guide, the following entries are already answered.
Cc1cn([C@@H]2O[C@H](CO)[C@@H](O)[C@@H]2O)c(=O)n(/C=C/C=O)c1=O = 4.00
CCOC(=O)/C=C/n1cnc2c(N)ncnc21 = 4.00
Cc1cn(COCCO)c(=O)n(/C=C/C=O)c1=O = 4.70
O=C/C=C/n1c(=O)c(I)cn([C@H]2C[C@H](O)[C@@H](CO)O2)c1=O = 4.10
N#C/C=C/n1c(=O)ccn([C@H]2C[C@H](O)[C@@H](CO)O2)c1=O = 4.00

Cc1cn([C@H]2C[C@H](O)[C@@H](CO)O2)c(=O)n(/C=C/C=O)c1=O has a reported pIC50 of 4.70

// recorded pIC50 for O=C/C=C/n1cc(F)c(=O)[nH]c1=O : 4.05

Note to self: pIC50 recorded for Cc1cn(C)c(=O)n(/C=C/C=O)c1=O was 4.82

Entry CC(=O)/C=C/n1c(=O)ccn([C@H]2C[C@H](O)[C@@H](CO)O2)c1=O , pIC50 reported as 5.22

Quick note, pIC50 for Cc1cn([C@@H]2O[C@H](CO)[C@@H](O)[C@H]2O)c(=O)n(/C=C/C=O)c1=O landed at 4.00

What the record says about O=C/C=C/n1ccc(=O)[nH]c1=O : pIC50 is 4.52

Short answer for Nc1nc(O)c2ncn(/C=C/C=O)c2n1 : pIC50 was 4.30

The compound listed as Cc1cn([C@H]2C[C@H](O)[C@@H](CO)O2)c(=O)n(/C=C/CO)c1=O has a reported pIC50 of 5.30

pIC50 reading for Cc1cn(/C=C/C=O)c(=O)[nH]c1=O : 4.00

Memo: O=C/C=C/n1c(=O)ccn([C@H]2C[C@H](O)[C@@H](CO)O2)c1=O , reported pIC50: 4.82

Value of pIC50 reported for the compound O=C/C=C/n1c(=O)ccn(C2O[C@H](CO)[C@@H](O)[C@H]2O)c1=O (some centres undefined) is 5.52
